Target: human FXR alpha (NR1H4) (Homo sapiens, UniProt Q96RI1)
Construct: agonist activity at the NR1H4 human nuclear receptor; fused on or other part: GST at the N-terminus (pDest15) in the TR-FRET test
Sequence (Q96RI1 1-486): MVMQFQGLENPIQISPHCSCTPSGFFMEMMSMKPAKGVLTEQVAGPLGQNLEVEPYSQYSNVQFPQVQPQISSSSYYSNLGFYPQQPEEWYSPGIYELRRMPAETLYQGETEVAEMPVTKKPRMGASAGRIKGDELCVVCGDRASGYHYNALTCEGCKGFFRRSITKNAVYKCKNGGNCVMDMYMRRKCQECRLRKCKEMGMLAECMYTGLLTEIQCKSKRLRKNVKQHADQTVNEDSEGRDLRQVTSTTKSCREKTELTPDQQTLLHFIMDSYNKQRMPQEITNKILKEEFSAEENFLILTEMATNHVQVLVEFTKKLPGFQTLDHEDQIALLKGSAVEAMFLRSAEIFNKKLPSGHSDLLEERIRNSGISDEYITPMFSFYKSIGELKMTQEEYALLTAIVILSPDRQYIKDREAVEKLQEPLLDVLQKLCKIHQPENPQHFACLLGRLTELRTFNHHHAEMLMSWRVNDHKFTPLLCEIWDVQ
Experiment: FXR binding / FXR-Tif 2 coactivator interaction, LANCE TR-FRET
Conditions: read-out: EC50 (effective binding concentration at FXR, half-maximal effective concentration)
valueType: pEC50
One number for each entry, as −log10 of the molar value.

Quick note, pEC50 for O=C(O)C1CCC(CNc2nc(-c3ccccc3O)c(Cc3c(F)cccc3F)s2)CC1 (stereo not shown) landed at 6.70

----------
Target: full length human FXR (Homo sapiens, UniProt Q96RI1)
Sequence (Q96RI1 1-472 isoform Q96RI1-2): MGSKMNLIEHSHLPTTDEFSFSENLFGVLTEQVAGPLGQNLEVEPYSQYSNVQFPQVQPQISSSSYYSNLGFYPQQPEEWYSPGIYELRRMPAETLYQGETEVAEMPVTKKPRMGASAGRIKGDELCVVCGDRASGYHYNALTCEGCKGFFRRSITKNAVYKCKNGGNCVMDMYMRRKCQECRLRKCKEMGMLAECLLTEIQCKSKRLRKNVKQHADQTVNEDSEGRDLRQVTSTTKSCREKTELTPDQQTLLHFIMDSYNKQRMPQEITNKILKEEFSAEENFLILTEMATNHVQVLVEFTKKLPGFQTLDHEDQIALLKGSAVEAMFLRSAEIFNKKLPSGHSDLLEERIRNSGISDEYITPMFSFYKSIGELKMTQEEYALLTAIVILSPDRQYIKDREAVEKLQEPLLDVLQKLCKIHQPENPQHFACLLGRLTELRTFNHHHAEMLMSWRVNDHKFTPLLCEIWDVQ
Sequence (P19793 1-462 partner): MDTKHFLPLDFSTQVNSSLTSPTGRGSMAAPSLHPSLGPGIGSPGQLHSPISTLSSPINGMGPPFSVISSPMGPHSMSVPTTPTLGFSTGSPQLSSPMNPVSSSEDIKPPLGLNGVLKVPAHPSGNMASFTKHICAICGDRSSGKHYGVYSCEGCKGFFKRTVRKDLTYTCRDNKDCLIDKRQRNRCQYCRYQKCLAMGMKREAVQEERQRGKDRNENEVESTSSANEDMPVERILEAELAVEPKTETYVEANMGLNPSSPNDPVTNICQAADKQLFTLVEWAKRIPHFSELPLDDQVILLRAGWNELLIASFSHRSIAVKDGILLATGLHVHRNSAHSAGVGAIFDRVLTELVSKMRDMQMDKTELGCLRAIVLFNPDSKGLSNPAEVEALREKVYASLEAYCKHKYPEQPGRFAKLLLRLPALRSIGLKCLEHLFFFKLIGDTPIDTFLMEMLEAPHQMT
Test: transactivation of FXR mediated transcription in a HEK293 reporter cell line (luciferase)
Conditions: HEK293 FXR reporter cell line; Tables 3-5
valueType: pEC50
One number for each entry, as −log10 of the molar value.

Below, 2 compounds whose answers are already recorded.
>  <compound>
O=C(O)C1CCC(CNc2nc(-c3cccc(O)c3)c(Cc3c(Cl)cccc3Cl)s2)CC1 (stereo not shown)

>  <targetSystem>
full length human FXR (Homo sapiens, UniProt Q96RI1)

>  <pEC50>
6.44

$$$$
>  <compound>
O=C(O)C1CCC(CNc2nc(-c3ccccc3O)c(Cc3c(F)cccc3F)s2)CC1 (stereo not shown)

>  <targetSystem>
full length human FXR (Homo sapiens, UniProt Q96RI1)

>  <pEC50>
6.70

$$$$

Return reported pEC50 values for all items listed beneath this line.
1. COc1ccccc1Cc1sc(NCC2CCC(C(=O)O)CC2)nc1-c1ccccc1O (stereo not shown)
2. COc1ccccc1Cc1sc(NCCCCCC(=O)O)nc1-c1ccccc1O
3. O=C(O)c1ccc(CNc2nc(-c3ccccc3O)c(Cc3cccc(F)c3F)s2)cc1

OUTPUT:
[5.35, 5.51, 6.36]
